The reader will find reported protein stability index values listed item by item below.
Test: protein stability index of a GFP-peptide fusion (yeast GPS) (PSI 1-4); higher = more stable; sorted into four equal gates, so the index is relative within each strain
Conditions: doa10∆
API note: the answer field is a bare number with no unit suffix.

// below: answered sequences
- polymer_sequence: "GMLAMASLHSKELTRIP [MED4]"
  protein stability index: 2.18
- polymer_sequence: "LLLNYLELIGVLSINPD [MED7]"
  protein stability index: 1.6
- polymer_sequence: "HVLSRLSYISALGMMTR [RET1]"
  protein stability index: 1.35
- polymer_sequence: "YSSVAGTVSRVNRLLSV [RRP4]"
  protein stability index: 1.74
- polymer_sequence: "MQSTSPAVKQWDLLPEP [SWI1]"
  protein stability index: 2.73

QUERY: May I ask what protein stability index has been recorded for MAHFKEYQVIGRRLPTE [RPL20A] ?
RESULT: 2.21

QUERY: # repeat for SAESWGTGRAVARIPRV [RPL4A]
RESULT: 3.06

QUERY: # repeat for HKSLIRSISWAPSIGRW [YGL100W/SEH1]
RESULT: 2.81

QUERY: # repeat for KKALKVRTSATFRLPKT [RPL25]
RESULT: 2.87

QUERY: # repeat for KEDKSEAIDGNGEIKGE [SNF2]
RESULT: 2.23

QUERY: # repeat for SQVVETHKVTDIYSHEY [YMR129W/POM152]
RESULT: 2.75

QUERY: # repeat for SLENNIREFPEYFAAQA [RPL10]
RESULT: 2.3
